# TESTED_ON: electric eel AChE (Electrophorus electricus)
# Construct: purchased Sigma-Aldrich
# TEST_NAME: Acetylcholinesterase (AChE) inhibition assay, Ellman method
# Assay type: biochemical
# TEST_PARAMETERS: IC50, IC50 ± standard deviation
METRIC_NAME: pIC50
One number for each entry, as −log10 of the molar value.

Examples from the recorded data:
1. C=C(C)C1CC=C(C)CC1 (stereo not drawn)    3.41
2. C=C1CC[C@H]2O[C@]2(C)CC[C@@H]2[C@@H]1CC2(C)C [Caryophyllene Oxide]    2.84
3. CC1=CCCC(C)=CCC(C)(C)C=CC1    3.10
4. C=C1CCC2CC1C2(C)C (stereo not drawn)    3.28
5. C=C(C)C1CC=C(C)C(O)C1 (stereo not drawn) [trans-Carveol]    3.17

Next, consider the following compound.
Item C=C1CCC=C(C)CCC2C1CC2(C)C (stereo not drawn) [(E)-β-Caryophyllene] : provide pIC50 3.36

* * *

Hi there, I'd appreciate the recorded inhibition at 20 µg/mL for every entry that follows.
# TESTED_ON: electric eel AChE (Electrophorus electricus, UniProt O42275)
# Construct: purchased Sigma-Aldrich
# Sequence (O42275 24-633): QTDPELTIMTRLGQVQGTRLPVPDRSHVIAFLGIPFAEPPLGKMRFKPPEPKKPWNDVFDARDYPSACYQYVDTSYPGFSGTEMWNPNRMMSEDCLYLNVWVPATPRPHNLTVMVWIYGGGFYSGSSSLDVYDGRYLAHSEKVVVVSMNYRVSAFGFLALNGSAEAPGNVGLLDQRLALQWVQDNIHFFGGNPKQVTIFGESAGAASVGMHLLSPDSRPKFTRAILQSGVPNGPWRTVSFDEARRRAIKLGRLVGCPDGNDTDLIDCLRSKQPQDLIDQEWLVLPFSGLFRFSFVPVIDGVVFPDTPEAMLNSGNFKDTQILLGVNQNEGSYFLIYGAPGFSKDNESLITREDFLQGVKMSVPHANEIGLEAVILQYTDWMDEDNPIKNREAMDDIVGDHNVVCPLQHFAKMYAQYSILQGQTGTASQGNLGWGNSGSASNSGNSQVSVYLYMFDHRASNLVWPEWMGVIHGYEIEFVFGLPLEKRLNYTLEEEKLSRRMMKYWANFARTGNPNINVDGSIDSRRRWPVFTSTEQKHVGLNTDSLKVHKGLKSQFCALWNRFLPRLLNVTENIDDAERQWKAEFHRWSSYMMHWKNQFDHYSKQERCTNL
# TEST_NAME: Acetylcholinesterase (AChE) inhibition assay, Ellman method
# Type: biochemical
# TEST_PARAMETERS: read-out: Acetylcholinesterase inhibitory activity at 20 µg/mL
Give bare numbers, in %.

Can you give me inhibition at 20 µg/mL for all of these, one by one?
1. CC1=CCCC(C)=CCC(C)(C)C=CC1 [α-Humulene]
2. C=C1CCC2CC1C2(C)C (stereo not drawn) [β-Pinene]
3. C=C(C)C1CC=C(C)CC1 (stereo not shown) [Limonene]
4. C=C1CCC=C(C)CCC2C1CC2(C)C (stereo not drawn) [(E)-β-Caryophyllene]

25.1
28.9
27
26.3
